tested on: CDC1551(rv1405c′::GFP) reporter Mtb strain; experiment: microbe, parasite or virus in culture; assay type: cell-based, Mycobacterium tuberculosis; conditions: Mycobacterium tuberculosis; read-out: rv1405c'::GFP secondary assay NPA% at 10 µM compound
Measured parameter: activity at 10 µM (%)
Response body: numeric value in %, unit text excluded.

Sample records with activity at 10 µM:
{"Molecule": "COc1ccc(Cl)c(NS(=O)(=O)c2cnc(Cl)n2C)c1 [RU-0278036]", "Target desc": "CDC1551(rv1405c′::GFP) reporter Mtb strain", "Measured parameter": "activity at 10 µM", "Quantity unit": "%", "Measured number": 75.9}
{"Molecule": "Cc1ccc(NC(=O)c2cc(C)n(C3CC3)c2C)c(C)c1 [RU-0276186]", "Target desc": "CDC1551(rv1405c′::GFP) reporter Mtb strain", "Measured parameter": "activity at 10 µM", "Quantity unit": "%", "Measured number": 95.4}

Query block: I am curious: what activity at 10 µM value has been reported for CC(OC(=O)CC(C)(C)C)c1nc2cc(Cl)ccc2n1C (centres unmarked) [RU-0203619] ?
Result block: 75.6

Query block: I am curious: what activity at 10 µM value has been reported for Cc1ccc(-c2nc3nc(N)n(C)c(=O)c3nc2-c2ccc(C)cc2)cc1 [RU-0192424] ?
Result block: 97

Query block: I am curious: what activity at 10 µM value has been reported for CCc1nc(Cn2ccnc2-c2nc3c(s2)CCCC3)no1 [RU-0226010, CCC1=NC(CN2C=CN=C2C2=NC3=C(CCCC3)S2)=NO1] ?
Result block: 92.3

Query block: I am curious: what activity at 10 µM value has been reported for C(=C\c1ccccc1)/Cn1nnc(-c2cccs2)n1 [RU-0207924, C(\C=C\C1=CC=CC=C1)N1N=NC(=N1)C1=CC=CS1] ?
Result block: 97.4

Query block: I am curious: what activity at 10 µM value has been reported for COCCCC(=O)Nc1cccc(NC2CCCC2)c1 [RU-0215502, COCCCC(=O)NC1=CC(NC2CCCC2)=CC=C1] ?
Result block: 342

Query block: I am curious: what activity at 10 µM value has been reported for COCCOc1ccc(NS(=O)(=O)c2cn(C)c(Cl)n2)cn1 [RU-0203727] ?
Result block: 330

----------
test: Mouse liver microsomal stability; assay type: in vitro ADME; settings: mouse liver microsomes; read-out: half-life (t1/2) in mouse liver microsomes
Items are presented alongside their recorded half-life.
Response body: numeric value in min, unit text excluded.

{"Molecule": "O=C(c1cnc2ccccn12)N1CCCC(CCc2cccc(C(F)(F)F)c2)C1 (centres unmarked)", "half-life / min": 4.98}

Query block: I am curious: what half-life value has been reported for `CCSc1ncc(CN2CCN(c3nc4ccccc4o3)CC2)cn1` ?
Result block: 48.5

----------
test system: Mtb; experiment: Mtb growth assay in cholesterol medium (OD600); conditions: Fig. 2G; day 12; average
Measured parameter: OD600
// return just the number, without any unit appended

Query block: I am curious: what OD600 value has been reported for COc1ncc(CN2CCN(c3nc4ccccc4o3)CC2)cn1 [JSF-4271] ?
Result block: 0.52

Query block: I am curious: what OD600 value has been reported for c1ccc2oc(N3CCN(Cc4cncnc4)CC3)nc2c1 [JSF-4297] ?
Result block: 0.5

Query block: I am curious: what OD600 value has been reported for CCSc1ncc(CN2CCN(c3nc4ccccc4o3)CC2)cn1 [C6] ?
Result block: 0.1533

Query block: I am curious: what OD600 value has been reported for CCSc1ncc(CN2CCN(c3nc4ccccc4s3)CC2)cn1 [JSF-4298] ?
Result block: 0.1533

Query block: I am curious: what OD600 value has been reported for CCSc1ccc(CN2CCN(c3nc4ccccc4o3)CC2)cc1 [JSF-4300] ?
Result block: 0.16

----------
system: CDC1551(rv1405c′::GFP) reporter Mtb strain; assay: microbe, parasite or virus in culture; assay type: cell-based, Mycobacterium tuberculosis; details: Mycobacterium tuberculosis; read-out: rv1405c'::GFP secondary assay NPA% at 10 µM compound
Items are presented alongside their recorded activity at 10 µM.
Response body: numeric value in %, unit text excluded.

Sample records with activity at 10 µM:
{"Molecule": "COc1ccc(Cl)cc1-c1cc(NC(=O)c2c(C)noc2C)[nH]n1", "activity at 10 µM / %": 343}
{"Molecule": "COc1ccc(NCc2ccc(OC)c(Br)c2)cn1", "activity at 10 µM / %": 227}
{"Molecule": "N#Cc1nc(NC(=O)c2ccc(N3CCCC3)c(F)c2)[nH]c1C#N", "activity at 10 µM / %": 181}

Query block: Lab request: please report activity at 10 µM under test system CDC1551(rv1405c′::GFP) reporter Mtb strain for O=C(c1cnn2ccccc12)N1CCCC(CCc2cccc(C(F)(F)F)c2)C1 (centres unmarked)
Result block: 110

Query block: Lab request: please report activity at 10 µM under test system CDC1551(rv1405c′::GFP) reporter Mtb strain for CCc1nc(C(C#N)C(=O)/C=C/c2ccc(NC(C)=O)cc2)sc1C (centres unmarked)
Result block: 127

Query block: Lab request: please report activity at 10 µM under test system CDC1551(rv1405c′::GFP) reporter Mtb strain for Cc1ccc(C(C)NC(=O)Nc2ccc(C#N)c(Cl)c2)o1 (centres unmarked)
Result block: 90.5

Query block: Lab request: please report activity at 10 µM under test system CDC1551(rv1405c′::GFP) reporter Mtb strain for CCOc1ccc(OCCN(CC)CC(O)c2ccc(C)cc2)cc1 (centres unmarked)
Result block: 102

Query block: Lab request: please report activity at 10 µM under test system CDC1551(rv1405c′::GFP) reporter Mtb strain for `CCOc1cc(F)ccc1NC(=O)Nc1cccc(C#N)c1`
Result block: 188

Query block: Lab request: please report activity at 10 µM under test system CDC1551(rv1405c′::GFP) reporter Mtb strain for CC(SCc1cc(=O)n2nc(N)[nH]c2n1)c1ccccc1Cl (centres unmarked)
Result block: 6.6

----------
assay: Human liver microsomal stability; format: in vitro ADME; settings: human liver microsomes; read-out: half-life (t1/2) in human liver microsomes
Measured parameter: half-life (min)
Response body: numeric value in min, unit text excluded.

Query block: I am curious: what half-life value has been reported for `CCSc1ncc(CN2CCN(c3nc4ccccc4o3)CC2)cn1` ?
Result block: 37.6

----------
tested on: CDC1551(rv2390c′::GFP) reporter Mtb strain, response to high [Cl−]; experiment: microbe, parasite or virus in culture; assay type: cell-based, Mycobacterium tuberculosis; details: primary screen, Sheet2
Kindly return Yes if reported ShuminTan.MtbChloride.Primary: NPI% is no lower than 50%; return No if it is lower.

{"Molecule": "O=S1(=O)CC(S(=O)(=O)Nc2ccccc2-c2cccs2)c2ccccc21 (centres unmarked)", "Target desc": "CDC1551(rv2390c′::GFP) reporter Mtb strain, response to high [Cl−]", "Class assignment": "Yes"}

Query block: Dear colleague, could you confirm whether `O=C(Nc1cccc(C(F)(F)F)c1)c1n[nH]c(=O)c2ccccc12` has ShuminTan.MtbChloride.Primary: NPI% at or above 50%?
Result block: Yes

Query block: Dear colleague, could you confirm whether CCOc1ccc(OCCN(CC)CC(O)c2ccc(C)cc2)cc1 (centres unmarked) has ShuminTan.MtbChloride.Primary: NPI% at or above 50%?
Result block: Yes

Query block: Dear colleague, could you confirm whether `O=C(Nc1ccc(OCC(F)(F)F)nc1)N1CCCCCCC1` has ShuminTan.MtbChloride.Primary: NPI% at or above 50%?
Result block: No

----------
test system: Mtb; test: Mtb growth assay in cholesterol medium (OD600); details: Fig. 2G; day 3; individual replicates
Measured parameter: OD600
// return just the number, without any unit appended

Sample records with OD600:
{"Compound": "CCSc1ccc(CN2CCN(c3nc4ccccc4o3)CC2)cc1 [JSF-4300]", "OD600": 0.06}
{"Compound": "COc1ncc(CN2CCN(c3nc4ccccc4o3)CC2)cn1 [JSF-4271]", "OD600": 0.1}
{"Compound": "CCSc1ncc(CN2CCN(c3nc4ccccc4s3)CC2)cn1 [JSF-4298]", "OD600": 0.06}

Query block: I am curious: what OD600 value has been reported for CCSc1ncc(CN2CCN(c3nc4ccccc4o3)CC2)cn1 [C6] ?
Result block: 0.06

----------
tested on: Mtb; experiment: Mtb growth assay in standard 7H9 medium (OD600); details: Fig. 2F; day 6; average
Measured parameter: OD600
// return just the number, without any unit appended

Sample records with OD600:
{"Smi": "CCSc1ncc(CN2CCN(c3nc4ccccc4s3)CC2)cn1", "Target desc": "Mtb", "Measured parameter": "OD600", "Measured number": 0.38}
{"Smi": "CCSc1ncc(CN2CCN(c3nc4ccccc4o3)CC2)cn1", "Target desc": "Mtb", "Measured parameter": "OD600", "Measured number": 0.3733}
{"Smi": "COc1ncc(CN2CCN(c3nc4ccccc4o3)CC2)cn1", "Target desc": "Mtb", "Measured parameter": "OD600", "Measured number": 0.4067}
{"Smi": "CCSc1ccc(CN2CCN(c3nc4ccccc4o3)CC2)cc1", "Target desc": "Mtb", "Measured parameter": "OD600", "Measured number": 0.3867}

Consider the additional molecule presented here.
Query block: I am curious: what OD600 value has been reported for `c1ccc2oc(N3CCN(Cc4cncnc4)CC3)nc2c1` ?
Result block: 0.4

The measurements presented in this section are drawn from paper PMC8351955.
